target: Gag-Pol polyprotein (Human immunodeficiency virus type 1 group M subtype B (isolate HXB2)); assay: RNase H inhibition, HIV 1 Gag Pol polyprotein, FRET biochemical assay, screening (AID 372); conditions: HIV-1 RT RNase H, FRET RNA/DNA substrate fluorescence; at 10 µM
The campaign covered roughly 100,000 compounds. About 770 (0.77%) were called active. Cut-off read from the data, not from the text of the source: active = inhibition above about 50%; inactive = the rest. Many of the other results were omitted from the sample, so actives are more common in it than they were.
Possible outcomes: active, inactive

[[record]]
compound = "COc1ccc(NC(=O)C(=O)NCc2ccccn2)cc1"
assignedcategory = "inactive"

[[record]]
compound = "O=C(Nc1ccc(-c2nc3cc(Cl)ccc3o2)cc1)c1sc2ccccc2c1Cl"
assignedcategory = "inactive"

[[record]]
compound = "O=C1Nc2ccccc2NC1C1OC(c2ccccc2)=CC1=O (configuration not stated)"
assignedcategory = "inactive"

[[record]]
compound = "CC(=O)Nc1nc(-c2ccc(Cl)cc2)nc(C)c1C(C)=O"
assignedcategory = "inactive"

[[record]]
compound = "O=C(Nc1ccc2oc(-c3cccc(Cl)c3)nc2c1)c1sc2ccccc2c1Cl"
assignedcategory = "inactive"

[[record]]
compound = "O=C(Nc1ccc(Cl)cc1Cl)c1ccccc1Cl"
assignedcategory = "inactive"

[[record]]
compound = "Cc1ccc(N=Cc2c(O)n(C3CCCCC3)c(=O)n(C3CCCCC3)c2=O)cc1C"
assignedcategory = "inactive"

[[record]]
compound = "O=[N+]([O-])c1ccccc1C=Nc1cccc2ccccc12"
assignedcategory = "inactive"

[[record]]
compound = "N#C/C(=C/c1cccc2ccccc12)c1ccc([N+](=O)[O-])cc1"
assignedcategory = "inactive"

[[record]]
compound = "COC(=O)c1cccc(NC(=O)COc2ccc(Br)c(C)c2)c1"
assignedcategory = "inactive"

[[record]]
compound = "COc1nc(S(=O)(=O)c2ccc(C)cc2)c(Cl)s1"
assignedcategory = "inactive"

[[record]]
compound = "O=C(CCc1ccccc1)Nc1cc(C(=O)O)cc(C(=O)O)c1"
assignedcategory = "inactive"

[[record]]
compound = "CCCC1(CCC)NC(=S)N(c2nc3ccccc3s2)N1"
assignedcategory = "inactive"

[[record]]
compound = "CCOC(=O)c1ccc2[nH]c(C)c(C/C=C(/C)Cl)c(=O)c2c1"
assignedcategory = "inactive"

[[record]]
compound = "CCOC(=O)COc1c(Cl)cc(/C=C2\\C(=O)NC(=O)N(c3ccc(F)cc3)C2=O)cc1Cl"
assignedcategory = "inactive"

[[record]]
compound = "Cc1ccc(S(=O)(=O)c2nc(N)sc2Cl)cc1"
assignedcategory = "inactive"

[[record]]
compound = "Cc1ccc(N(CC(=O)NC2CCCCC2)S(=O)(=O)c2ccc(F)cc2)cc1"
assignedcategory = "active"


* * *

molecular target: Gag-Pol polyprotein (Human immunodeficiency virus type 1 group M subtype B (isolate HXB2)); test: RNase H inhibition, HIV 1 Gag Pol polyprotein, FRET biochemical assay, screening (AID 372); settings: HIV-1 RT RNase H, FRET RNA/DNA substrate fluorescence; at 10 µM
In all, about 100,000 compounds went through this assay and about 770 (0.77%) were called active. Rule as the data show it: active = inhibition above about 50%; inactive = the rest. What follows is part of a selection rich in actives, with near analogues and random picks from the rest.
Classes used: active, inactive

[[record]]
compound = "C/C(=N\\Nc1ccc([N+](=O)[O-])cc1)c1ccc([N+](=O)[O-])o1"
assignedcategory = "inactive"

[[record]]
compound = "CC(NC(=O)/C(C#N)=C/c1ccc(N(C)C)c(Br)c1)c1ccccc1 (stereo unspecified)"
assignedcategory = "inactive"

[[record]]
compound = "CCOC(=O)CNC1=C([N+](=O)[O-])C(=O)CC(C)(C)C1"
assignedcategory = "inactive"

[[record]]
compound = "Cc1ccc2nc(-c3ccc(C)c(NC(=O)/C=C/c4cccc([N+](=O)[O-])c4)c3)oc2c1"
assignedcategory = "inactive"

[[record]]
compound = "O=C(O)C1C2CC=CC2c2cc(Oc3ccccc3)cc3c2N1CC1CC=CC31 (stereo unspecified)"
assignedcategory = "inactive"

[[record]]
compound = "O=C(/C=C/c1ccc(Cl)cc1)Nc1ccc(-c2nc3ccccc3o2)cc1"
assignedcategory = "active"


Provenance of the data: PubChem BioAssay AID372
